This section presents compounds with their documented cytotoxicity at 10 µM values.
assay: Toxicity liver stage against HepG2, at 10uM; assay type: cell-based; set-up: test concentration 10 uM, cell line HepG2-A16-CD81EGFP; conditions: human, HepG2-A16-CD81EGFP cells; read-out: INHIBITION
MEASURED_QUANTITY: cytotoxicity at 10 µM (%)

compound=CNC(=O)NCC(=O)Nc1ccccc1N1CCc2ccccc21 measured_quantity="cytotoxicity at 10 µM" assay_value=2.46
compound="CCc1nc(C2CCCN2CCCc2nc3ccccc3o2)no1 (centres undefined)" measured_quantity="cytotoxicity at 10 µM" assay_value=-7.92
compound=CN(C)c1nccc(N(C)Cc2nc3ccccc3n2C)n1 measured_quantity="cytotoxicity at 10 µM" assay_value=0.482
compound="CCOCC1COCCC12CCN(C(=O)CC1=CCCCC1)CC2 (centres undefined)" measured_quantity="cytotoxicity at 10 µM" assay_value=2.99
compound=O=C1COc2cc(C(=O)NS(=O)(=O)c3cccc(Cl)c3)ccc2N1 measured_quantity="cytotoxicity at 10 µM" assay_value=-4.01
compound="NC(=O)CC1CCCN(c2cncc(OCc3ccccc3)n2)C1 (centres undefined)" measured_quantity="cytotoxicity at 10 µM" assay_value=17.7
compound=CC(C)N(CCNCc1ccc(C#N)cc1)C1CC1 measured_quantity="cytotoxicity at 10 µM" assay_value=-2.54
compound="CC(Nc1c(F)cc(C#N)cc1F)c1cccc(S(N)(=O)=O)c1 (centres undefined)" measured_quantity="cytotoxicity at 10 µM" assay_value=-4.34
compound=Cc1ccc(OCCN(C)Cc2nccn2C)c(C)c1 measured_quantity="cytotoxicity at 10 µM" assay_value=5.51
compound="CC(C)N1CCCC(C(=O)N(C)CCCc2cnn(C)c2)C1 (centres undefined)" measured_quantity="cytotoxicity at 10 µM" assay_value=-8.03
compound=O=C(c1cc(-c2ccco2)nc2c(Cl)cccc12)N1CC[C@H]2CNC[C@H]21 measured_quantity="cytotoxicity at 10 µM" assay_value=-3.29
compound=CCN(CC)c1ccc(NS(=O)(=O)c2cccnc2)cn1 measured_quantity="cytotoxicity at 10 µM" assay_value=3.8
compound=Cc1cnc2c(c1NCc1ccc3c(c1)OCO3)c(=O)n(C)c(=O)n2C measured_quantity="cytotoxicity at 10 µM" assay_value=16.7
compound=O=C(CC1CCCCC1)N1C[C@@H]2CC[C@H]1CN(Cc1cccnc1)C2 measured_quantity="cytotoxicity at 10 µM" assay_value=-0.662
compound="N#CC(NC(=O)CCC1CCC1)c1cnn(-c2ccccc2)c1 (centres undefined)" measured_quantity="cytotoxicity at 10 µM" assay_value=-2.65
compound="Cc1ccccc1CNC(Cn1cncn1)c1ccccc1 (centres undefined)" measured_quantity="cytotoxicity at 10 µM" assay_value=-1.45
compound="O=C(CC1CCCO1)NS(=O)(=O)Cc1cc(-c2ccccc2)no1 (centres undefined)" measured_quantity="cytotoxicity at 10 µM" assay_value=9.95
compound="CC1CCc2nc(O)c(C(=O)NCc3ccncc3)cc2C1 (centres undefined)" measured_quantity="cytotoxicity at 10 µM" assay_value=-1.37
compound="Cc1nn(-c2ccc(C(=O)O)cc2)c2c1C(c1ccsc1)SCC(=O)N2 (centres undefined)" measured_quantity="cytotoxicity at 10 µM" assay_value=0.153
compound="CCn1ncc2c1C(COC)CN(Cc1ccc(F)cc1)C2 (centres undefined)" measured_quantity="cytotoxicity at 10 µM" assay_value=12.4
compound="NC(=O)C1(Cc2ccc(-c3ccccc3)cc2)CCNC1 (centres undefined)" measured_quantity="cytotoxicity at 10 µM" assay_value=11.5
compound=O=C(Cn1nc(-c2ccc(F)cc2)oc1=O)Nc1ccccc1 measured_quantity="cytotoxicity at 10 µM" assay_value=0.967
compound=O=C(c1ccoc1)N1CCC(NCc2ccccc2-n2ccnc2)CC1 measured_quantity="cytotoxicity at 10 µM" assay_value=5.89
compound="Cn1ncc2c1NC(=O)CC2c1c(Cl)cccc1Cl (centres undefined)" measured_quantity="cytotoxicity at 10 µM" assay_value=55.1
